Data origin: ChEMBL document CHEMBL5584231

Quick reference for selectivity ratio among some compounds
Assay: Therapeutic index, ratio of HC10 for mouse RBC to IC50 for cytotoxicity against RG cells (unknown origin)
Type: toxicity, cell-based
Conditions: mouse RBC and RG cells, read-out: TI
Residues, ends and D or L forms follow the SMILES beside them.
Assay Readout: selectivity ratio

[[record]]
compound = "CC(C)C[C@H](NC(=O)[C@H](CC(C)C)NC(=O)[C@H](CCCCN)NC(=O)[C@H](CCCCN)NC(=O)[C@H](CC(C)C)NC(=O)[C@H](CCC(=O)O)NC(=O)[C@H](CCCCN)NC(=O)[C@H](CCCCN)NC(=O)[C@H](CC(C)C)NC(=O)[C@H](CC(C)C)NC(=O)[C@H](CCCCN)NC(=O)[C@H](CCCCN)NC(=O)[C@H](CC(C)C)NC(=O)[C@@H](N)CC(C)C)C(N)=O (H-LLKKLLKKELKKLL-NH2)"
assay_readout = "selectivity ratio"
data_value = 2.3

[[record]]
compound = "CC(C)C[C@H](NC(=O)[C@H](CCC(=O)O)NC(=O)[C@H](CCCCN)NC(=O)[C@H](CCCCN)NC(=O)[C@H](CC(C)C)NC(=O)[C@H](CC(C)C)NC(=O)[C@H](CCCCN)NC(=O)[C@H](CCCCN)NC(=O)[C@H](CC(C)C)NC(=O)[C@H](CC(C)C)NC(=O)[C@H](CCCCN)NC(=O)[C@H](CCCCN)NC(=O)[C@H](CC(C)C)NC(=O)[C@@H](N)CC(C)C)C(N)=O (H-LLKKLLKKLLKKEL-NH2)"
assay_readout = "selectivity ratio"
data_value = 5.81


* * *

Quick reference for selectivity ratio among some compounds
Assay: Therapeutic index, ratio of HC10 for mouse RBC to IC50 for cytotoxicity against human HeLa cells
Format: toxicity, cell-based
Settings: mouse RBC and HeLa cells, read-out: TI
Residues, ends and D or L forms follow the SMILES beside them.
Assay Readout: selectivity ratio

[[record]]
compound = "CC(C)C[C@H](NC(=O)[C@H](CC(C)C)NC(=O)[C@H](CCCCN)NC(=O)[C@H](CCCCN)NC(=O)[C@H](CC(C)C)NC(=O)[C@H](CCC(=O)O)NC(=O)[C@H](CCCCN)NC(=O)[C@H](CCCCN)NC(=O)[C@H](CC(C)C)NC(=O)[C@H](CC(C)C)NC(=O)[C@H](CCCCN)NC(=O)[C@H](CCCCN)NC(=O)[C@H](CC(C)C)NC(=O)[C@@H](N)CC(C)C)C(N)=O (H-LLKKLLKKELKKLL-NH2)"
assay_readout = "selectivity ratio"
data_value = 4.18

[[record]]
compound = "CC(C)C[C@H](NC(=O)[C@H](CC(C)C)NC(=O)[C@H](CCCCN)NC(=O)[C@H](CCCCN)NC(=O)[C@H](CC(C)C)NC(=O)[C@H](CC(C)C)NC(=O)[C@H](CCCCN)NC(=O)[C@H](CCCCN)NC(=O)[C@H](CC(C)C)NC(=O)[C@H](CC(C)C)NC(=O)[C@H](CCCCN)NC(=O)[C@H](CCCCN)NC(=O)[C@H](CC(C)C)NC(=O)[C@H](CC(C)C)NC(=O)[C@H](CCCCN)NC(=O)[C@@H](N)CCCCN)C(=O)N[C@@H](CCCCN)C(N)=O (H-KKLLKKLLKKLLKKLLK-NH2)"
assay_readout = "selectivity ratio"
data_value = 2.62

[[record]]
compound = "CC(C)C[C@H](NC(=O)[C@H](CCC(=O)O)NC(=O)[C@H](CCCCN)NC(=O)[C@H](CCCCN)NC(=O)[C@H](CC(C)C)NC(=O)[C@H](CC(C)C)NC(=O)[C@H](CCCCN)NC(=O)[C@H](CCCCN)NC(=O)[C@H](CC(C)C)NC(=O)[C@H](CC(C)C)NC(=O)[C@H](CCCCN)NC(=O)[C@H](CCCCN)NC(=O)[C@H](CC(C)C)NC(=O)[C@@H](N)CC(C)C)C(N)=O (H-LLKKLLKKLLKKEL-NH2)"
assay_readout = "selectivity ratio"
data_value = 13.7

